# credit: patent US20230339865A1

- measured.target: TAOK3 (JIK) (Homo sapiens, UniProt Q9H2K8)
- Sequence (Q9H2K8 1-898): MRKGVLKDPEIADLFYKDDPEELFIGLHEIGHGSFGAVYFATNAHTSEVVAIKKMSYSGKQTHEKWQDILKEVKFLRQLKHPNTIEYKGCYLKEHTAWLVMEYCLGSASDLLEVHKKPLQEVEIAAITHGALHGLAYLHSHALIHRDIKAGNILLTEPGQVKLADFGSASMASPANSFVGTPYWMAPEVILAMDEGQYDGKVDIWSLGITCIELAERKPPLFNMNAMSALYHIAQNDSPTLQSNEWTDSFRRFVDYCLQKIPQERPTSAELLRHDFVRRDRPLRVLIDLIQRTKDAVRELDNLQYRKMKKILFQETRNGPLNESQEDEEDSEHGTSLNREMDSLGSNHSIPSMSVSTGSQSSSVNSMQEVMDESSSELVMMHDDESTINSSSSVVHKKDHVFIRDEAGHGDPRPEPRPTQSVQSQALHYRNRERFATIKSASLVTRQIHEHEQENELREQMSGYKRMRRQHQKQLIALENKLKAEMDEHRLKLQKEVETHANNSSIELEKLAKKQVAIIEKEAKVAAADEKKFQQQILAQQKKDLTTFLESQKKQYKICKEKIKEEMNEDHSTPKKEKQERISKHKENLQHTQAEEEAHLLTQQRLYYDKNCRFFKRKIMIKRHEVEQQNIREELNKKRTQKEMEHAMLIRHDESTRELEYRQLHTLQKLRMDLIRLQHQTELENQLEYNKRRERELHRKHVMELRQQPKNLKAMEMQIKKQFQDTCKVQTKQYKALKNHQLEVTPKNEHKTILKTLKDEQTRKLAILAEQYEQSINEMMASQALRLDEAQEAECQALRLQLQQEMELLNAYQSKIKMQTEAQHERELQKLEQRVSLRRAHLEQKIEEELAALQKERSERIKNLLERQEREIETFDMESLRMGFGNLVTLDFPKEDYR
recorded.metric: IC50 (nM)
Numbers only, in nM.

INPUT: Bench note: what IC50 did CCN1CCN(Cc2ccc(NC(=O)c3ccc(C)c(Oc4ncnc5cc(NC)c(OC)cc45)c3)cc2C(F)(F)F)CC1 show?
OUTPUT: 413
